Molecular target: Fuc(a1-2)Gal(b1-4)GlcNAc(b1-3)Gal(b1-4)GlcNAc(b1-2)Man(a1-3)[Fuc(a1-2)Gal(b1-4)GlcNAc(b1-3)Gal(b1-4)GlcNAc(b1-2)Man(a1-6)]Man(b1-4)GlcNAc(b1-4)GlcNAc
Assay: glycan array binding signal (z-score within array); higher = stronger binding
Conditions: glycan notation: IUPAC condensed, linker removed
Shown is part of a subset that was picked to be rich in the strongest signals.
I'd appreciate it if you could supply glycan array binding signal (z-score) values for the items below.
Field format: numeric only.

query: What value of glycan array binding signal (z-score) has been reported for the following binder? SynCAM (Mus musculus) (protein) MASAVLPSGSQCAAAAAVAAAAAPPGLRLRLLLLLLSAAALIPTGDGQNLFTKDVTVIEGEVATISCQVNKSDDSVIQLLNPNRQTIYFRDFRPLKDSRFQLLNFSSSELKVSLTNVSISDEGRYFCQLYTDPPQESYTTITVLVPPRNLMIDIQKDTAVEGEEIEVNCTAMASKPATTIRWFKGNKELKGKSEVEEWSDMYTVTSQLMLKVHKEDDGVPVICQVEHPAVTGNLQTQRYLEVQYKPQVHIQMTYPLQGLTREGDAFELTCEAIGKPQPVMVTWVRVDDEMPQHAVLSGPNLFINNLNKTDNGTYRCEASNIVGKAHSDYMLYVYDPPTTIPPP
result: 0.696

query: What value of glycan array binding signal (z-score) has been reported for the following binder? Agalectin (Anopheles gambiae) (protein) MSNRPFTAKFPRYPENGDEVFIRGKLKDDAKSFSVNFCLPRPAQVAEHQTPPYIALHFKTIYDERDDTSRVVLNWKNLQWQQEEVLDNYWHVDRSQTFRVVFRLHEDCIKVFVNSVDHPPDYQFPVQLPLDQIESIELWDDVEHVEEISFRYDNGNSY
result: -0.148

query: What value of glycan array binding signal (z-score) has been reported for the following binder? SP15308C-bot-338-23-338 (Bacteroides ovatus) (protein) DEWTDEQFKQLISFKTQPGGWGVTDVHVRYANSAKYTYNLPVLVSGSTDNTDDRLVSFSLRDDTLDILNFEKFGNRPELYFRELPQKYYSFPKELTIPAGQSHALLPIEFSLDGLDDSQKWALPLKVCEDANGTYAVNPRKYYRTAVLRPILFNEFSGRFSGSSLLGTMAGESDIKFSSTEIKLNVVTDSIVFFYAGQRTEDYEDRINYKVFLQFTGDKVDSKKDLYKMKIWAENEKLKFNSYSTPTYKVSSEMDATKTYLKHTYIVISDIDFDFVDYTSVPNYEIEYNMKGGLSVSRDLDTRKPDEDQGSDSKWW
result: 0.228

query: What value of glycan array binding signal (z-score) has been reported for the following binder? OGAA (protein) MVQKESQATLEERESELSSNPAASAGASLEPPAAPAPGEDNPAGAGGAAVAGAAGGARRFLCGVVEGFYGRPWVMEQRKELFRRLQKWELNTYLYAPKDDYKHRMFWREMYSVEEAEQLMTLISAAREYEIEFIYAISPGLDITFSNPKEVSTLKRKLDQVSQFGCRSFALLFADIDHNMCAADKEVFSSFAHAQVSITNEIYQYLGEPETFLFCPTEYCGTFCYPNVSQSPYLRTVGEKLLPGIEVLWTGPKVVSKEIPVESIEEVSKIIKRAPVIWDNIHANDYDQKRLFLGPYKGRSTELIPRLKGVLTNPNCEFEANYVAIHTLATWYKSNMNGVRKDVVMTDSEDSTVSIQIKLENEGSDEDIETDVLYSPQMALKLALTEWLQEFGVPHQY
result: 0.006

query: What value of glycan array binding signal (z-score) has been reported for the following binder? Gal 7 (Homo sapiens) (protein) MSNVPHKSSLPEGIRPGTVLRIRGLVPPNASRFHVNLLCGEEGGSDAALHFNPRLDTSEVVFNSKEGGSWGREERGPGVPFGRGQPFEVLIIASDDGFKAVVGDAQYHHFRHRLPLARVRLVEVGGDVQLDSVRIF
result: 5.09
